assay: Preliminary PK profile in dogs; type: in vivo, dog; conditions: dog, in vivo, PK summary table
observation-type: half-life (h)
Numeric answer only, unit h assumed.

## Task Look at this molecule and give its reported half-life. CC(C)(CC(=O)O)NC(=O)c1nc(C#N)c2cc(Oc3ccccc3)ccc2c1O [Formula I]
## Result 11

----------
assay: PK profile in monkeys; type: in vivo, monkey; conditions: both sexes, monkey, in vivo; monkeys, males and females
observation-type: clearance
Give the value; after it, write the unit.

## Task Look at this compound and give its reported clearance. CC(C)(CC(=O)O)NC(=O)c1nc(C#N)c2cc(Oc3ccccc3)ccc2c1O [Formula I]
## Result 0.026 L/h/kg
